- PROCEDURE_SUMMARY: Cytotoxicity against rat CGN cells assessed as cell viability at 12.5 uM after 24 hrs by MTT assay relative to control
- Type: cell-based
- PROTOCOL_CONDITIONS: read-out: Activity
viability at 24 h, 12.5 µM reference
Please state the figure in %; there is no need to write the unit.

| CHEMICAL_SMILES | viability at 24 h, 12.5 µM [%] |
| --- | --- |
| O=C1C(NCCNc2c3c(nc4cc(Cl)ccc24)CCCC3)=CC(=O)c2c(O)cccc21 | 73.5 |

Let us examine a further case.
Entry under review: O=C1C=C(NCCNc2c3c(nc4cc(Cl)ccc24)CCCC3)C(=O)c2ccccc21 . Reported viability at 24 h, 12.5 µM?
75

Where do the numbers come from? From ChEMBL document CHEMBL3351527.
